Values were extracted from ChEMBL document CHEMBL1132569.

Biological target: UniProt P08173
Sequence (whole entry): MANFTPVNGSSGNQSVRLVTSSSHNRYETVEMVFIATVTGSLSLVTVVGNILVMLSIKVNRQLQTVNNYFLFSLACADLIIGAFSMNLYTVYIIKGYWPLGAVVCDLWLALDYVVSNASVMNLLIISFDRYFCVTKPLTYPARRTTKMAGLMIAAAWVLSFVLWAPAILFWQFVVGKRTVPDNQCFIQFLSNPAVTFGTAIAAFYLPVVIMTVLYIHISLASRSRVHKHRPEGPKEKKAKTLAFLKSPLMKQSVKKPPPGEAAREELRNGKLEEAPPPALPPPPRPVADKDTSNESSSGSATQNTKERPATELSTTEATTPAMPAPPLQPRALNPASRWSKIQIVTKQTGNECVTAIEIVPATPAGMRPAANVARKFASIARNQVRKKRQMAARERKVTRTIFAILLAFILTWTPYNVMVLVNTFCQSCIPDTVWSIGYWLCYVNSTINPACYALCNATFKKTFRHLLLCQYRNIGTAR
Experiment: Binding affinity at the unliganded human muscarinic acetylcholine receptor M4 was estimated as log affinity (log1/M)
MEASUREMENT_TYPE: Affinity

Worked cases, answers included:
For the molecule shown here, N#CC[N+]12CC[C@@]34c5ccccc5N5C(=O)C[C@@H]6OCC=C(C1)[C@H](C[C@@H]32)[C@@H]6[C@H]54 (stereo partly drawn) , give the reported Affinity.
< 4.4

Param item: O=C1C[C@@H]2OCC=C3C[N+]4(Cc5ccc6ccccc6c5)CC[C@]56c7ccccc7N1[C@H]5[C@H]2[C@H]3C[C@@H]64 (stereo partly drawn)
< 5.6

---
For the molecule shown here, O=C1C[C@@H]2OCC=C3C[N+]4([O-])CC[C@]56c7ccccc7N1[C@H]5[C@H]2[C@H]3C[C@@H]64 (stereo partly drawn) , give the reported Affinity.
< 3.8
